# Study target: UniProtKB Q8TCC7
# Sequence (Q8TCC7 whole entry): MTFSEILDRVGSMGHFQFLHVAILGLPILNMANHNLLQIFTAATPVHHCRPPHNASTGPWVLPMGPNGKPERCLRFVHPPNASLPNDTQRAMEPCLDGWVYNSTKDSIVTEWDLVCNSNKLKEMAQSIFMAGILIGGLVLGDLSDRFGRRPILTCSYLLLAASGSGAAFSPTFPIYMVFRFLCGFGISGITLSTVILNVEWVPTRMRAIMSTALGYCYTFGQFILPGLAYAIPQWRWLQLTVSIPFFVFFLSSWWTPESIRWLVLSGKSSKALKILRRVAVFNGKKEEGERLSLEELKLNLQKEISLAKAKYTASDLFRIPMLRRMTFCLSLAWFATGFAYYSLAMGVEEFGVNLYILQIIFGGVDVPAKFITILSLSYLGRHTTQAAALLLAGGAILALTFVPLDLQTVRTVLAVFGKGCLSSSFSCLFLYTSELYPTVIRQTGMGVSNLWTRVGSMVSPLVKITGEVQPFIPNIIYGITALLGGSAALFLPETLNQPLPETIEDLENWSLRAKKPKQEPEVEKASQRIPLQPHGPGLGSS
# Protocol description: OAT3 uptake study in ciPTEC-OAT3
# Test parameters: eq 4 fitted to CLint,u, mean ± S.D.
Observed property: Vb,max OAT3, Active and Passive Uptake (pmol/min/mg)

INSERT INTO measurements (compound, meas_value) VALUES
  ('O=C(NC[C@H]1CN(c2ccc(N3CCOCC3=O)cc2)C(=O)O1)c1ccc(Cl)s1', 723);

A: CCCc1nc(C(C)(C)O)c(C(=O)O)n1Cc1ccc(-c2ccccc2-c2nnn[nH]2)cc1
B: CCCCNc1cc(C(=O)O)cc(S(N)(=O)=O)c1Oc1ccccc1 [bumetanide]
Hi there! Just curious which has the higher Vb,max OAT3, Active and Passive Uptake between A and B . Field: selected label. Fill in the label of the entry you choose. B

Reference source: paper PMC11372837
